- testedTarget: cIAP2-BIR3 (Homo sapiens (Human))
- Sequence (Q13489 238-349): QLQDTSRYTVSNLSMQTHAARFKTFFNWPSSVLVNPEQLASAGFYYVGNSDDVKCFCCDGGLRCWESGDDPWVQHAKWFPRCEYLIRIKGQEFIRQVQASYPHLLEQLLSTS
- protocolSummary: BIR binding assay (FRET competition), cIAP2 BIR3
- protocolConditions: fold separation (FS) for cIAP2
measurementLabel: cIAP2 BIR3 vs BIR2 separation window

I have this molecule here, C[C@@H]1CN(CC(=O)N2CC(C)(C)c3[nH]c(=O)c(Cc4ccc(F)cc4)cc32)[C@@H](CN2CCN(C(=O)COCCOCCOCC(=O)N3CCN(C[C@H]4CN[C@H](C)CN4CC(=O)N4CC(C)(C)c5[nH]c(=O)c(Cc6ccc(F)cc6)cc54)[C@H](C)C3)C[C@H]2C)CN1 (stereo in doubt) , and I need its recorded cIAP2 BIR3 vs BIR2 separation window.
+++ (10,000>FS>1,000)

What does the data say about its cIAP2 BIR3 vs BIR2 separation window? Entry: C[C@@H]1CN(CC(=O)N2CC(C)(C)c3[nH]c(=O)c(Cc4ccc(F)cc4)cc32)[C@@H](CN2CCO[C@H](COc3cccc(OC[C@@H]4CN(C[C@H]5CN[C@H](C)CN5CC(=O)N5CC(C)(C)c6[nH]c(=O)c(Cc7ccc(F)cc7)cc65)CCO4)c3Cl)C2)CN1
+++ (10,000>FS>1,000)

# lookup: cIAP2 BIR3 vs BIR2 separation window of C[C@@H]1CN(CC(=O)N2CC(C)(C)c3[nH]c(=O)c(Cc4ccc(F)cc4C#N)cc32)[C@@H](CN2CCO[C@H](C(=O)NCc3ccc(CNC(=O)[C@@H]4CN(C[C@H]5CN[C@H](C)CN5CC(=O)N5CC(C)(C)c6[nH]c(=O)c(Cc7ccc(F)cc7C#N)cc65)CCO4)cc3)C2)CN1
+++ (10,000>FS>1,000)

Values compiled from patent US20250326771A1.
